biological target: T1, Peptide B (human PAR-2), C-terminal biotinylated (Human, not fully specified); assay: peptide ELISA
T1 construct: also called Peptide B C-Term
T1 peptide: SLIGKVDGTSHVTGGGGGS-biotin
Where no end group is shown, it is not given here.
Kindly supply the reported OD450 values for the records listed here.

Respond only with OD450 recorded for H2M611N (antibody, V domains shown, chimeric: human variable, mouse constant domains) VH: EVQLLESGGGLVQPGGSLRLSCAASGFTFSSYAMTWVRQAPGKGLYWVSAISGSGGSAYYADSVKGRFTISRDNSKNTLYLQMNSLRAEDTAVYYCAKEGDSGYDLDYWGRGTLVTVSS VL: DIQMTQSPSSLSASVGDRVTITCRARQGISNYLAWLQQKPGKAPKSLIYAASSLQSGVPSKFSGSGSGTDFTLTISSLQPEDFATYYCQQYKSSPLTFGGGTKVEIK
1 to 4 od

Please give the documented OD450 of H2M618N (antibody, V domains shown, chimeric: human variable, mouse constant domains) VH: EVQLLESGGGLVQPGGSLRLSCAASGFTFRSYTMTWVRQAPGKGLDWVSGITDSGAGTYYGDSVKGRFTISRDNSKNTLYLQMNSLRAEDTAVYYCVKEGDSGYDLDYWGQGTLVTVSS VL: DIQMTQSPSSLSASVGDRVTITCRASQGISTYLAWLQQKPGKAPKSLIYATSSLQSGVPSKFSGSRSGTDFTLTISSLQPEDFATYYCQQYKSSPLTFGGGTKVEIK
1 to 4 od

// Input: H2M589N (antibody, V domains shown, chimeric: human variable, mouse constant domains) VH: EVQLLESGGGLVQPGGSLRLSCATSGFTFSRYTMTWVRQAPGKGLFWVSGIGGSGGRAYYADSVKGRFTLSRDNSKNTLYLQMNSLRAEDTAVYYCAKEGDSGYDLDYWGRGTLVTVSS VL: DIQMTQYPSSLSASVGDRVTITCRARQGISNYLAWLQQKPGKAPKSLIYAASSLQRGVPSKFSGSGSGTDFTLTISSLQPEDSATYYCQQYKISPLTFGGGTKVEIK . Output its OD450 only.
1 to 4 od
